# Experiment description: Rat pharmacokinetics
# Type: in vivo
# Cond: in vivo, po, i.g
Property name: bioavailability (%)

COc1ccc2[nH]c3c(c2c1)CC1c2cc(OC)c(OCc4ccc(C(F)(F)F)cc4)cc2CCN1C3 (centres unmarked) : 31
COc1ccc2[nH]c3c(c2c1)CC1c2cc(OCc4ccc(C(F)(F)F)cc4)c(OC)cc2CCN1C3 (centres unmarked) : 57.2

###

# Experiment description: Rat pharmacokinetics
# Format: in vivo
# Cond: plasma, iv, read-out: MRTINF—obs
Property name: MRT inf (h)

COc1ccc2c(c1)c1c(n2CO)CN2CCc3cc(OCc4ccccc4)c(OC)cc3C2C1 (centres unmarked) : 1.7
COc1ccc2c(c1)c1c(n2CO)CN2CCc3cc(OC)c(OCc4ccccc4)cc3C2C1 (centres unmarked) : 3.3

###

# Test system: Syrian golden hamsters (high-fat diet, hyperlipidemia model)
# Experiment description: In vivo lipid-lowering activity in high-fat diet golden hamsters
# Design: species or system Syrian golden hamster
# Cond: high-fat diet, oral (intragastric) 30 mg/kg once a day for three weeks, serum
The reader will find reported LDL-C values listed item by item below.
Property name: LDL-C (mmol/L)

COc1ccc2[nH]c3c(c2c1)CC1c2cc(OCc4ccc(F)cc4)c(OC)cc2CCN1C3c1ccc(F)cc1 (stereo not shown) [Example B5] : 7.66
COc1ccc2c(c1)c1c(n2CO)CN2CCc3cc(OC)c(OCc4ccc(F)cc4)cc3C2C1 (stereo not shown) [Example A5] : 7.44
COc1ccc2c(c1)c1c(n2CO)CN2CCc3cc(OC)c(OCc4ccccc4)cc3C2C1 (stereo not shown) [Example A1] : 13.64
COc1ccc2c(c1)c1c(n2CO)CN2CCc3cc(OCc4ccccc4)c(OC)cc3C2C1 (stereo not shown) [Example A55] : 5.56

###

# Experiment description: Rat pharmacokinetics
# Assay type: in vivo
# Cond: in vivo, po, i.g
The reader will find reported Cmax values listed item by item below.
Property name: Cmax (µg/mL)

COc1ccc2[nH]c3c(c2c1)CC1c2cc(OCc4ccc(C(F)(F)F)cc4)c(OC)cc2CCN1C3 (centres unmarked) : 0.297
COc1ccc2[nH]c3c(c2c1)CC1c2cc(OC)c(OCc4ccc(C(F)(F)F)cc4)cc2CCN1C3 (centres unmarked) : 0.251

###

# Experiment description: Rat pharmacokinetics
# Format: in vivo
# Set-up: concentration or dose not given beside the values
# Cond: in vivo, po, i.g, read-out: AUCINF—obs
Property name: AUC(0-inf) (µg·h/mL)

COc1ccc2[nH]c3c(c2c1)CC1c2cc(OCc4ccc(C(F)(F)F)cc4)c(OC)cc2CCN1C3 (centres unmarked) : 4.34
COc1ccc2[nH]c3c(c2c1)CC1c2cc(OC)c(OCc4ccc(C(F)(F)F)cc4)cc2CCN1C3 (centres unmarked) : 564

###

The reader will find reported bioavailability values listed item by item below.
# Experiment description: Rat pharmacokinetics
# Type: in vivo
# Cond: plasma, po
Property name: bioavailability

COc1ccc2c(c1)c1c(n2CO)CN2CCc3cc(OCc4ccccc4)c(OC)cc3C2C1 (centres unmarked) : 6.2%
COc1ccc2c(c1)c1c(n2CO)CN2CCc3cc(OC)c(OCc4ccccc4)cc3C2C1 (centres unmarked) : 20.3%

###

# Test target: α1A-adrenergic receptor (α1A-AR) (Homo sapiens, UniProt P35348)
# Construct: expressed in transfected cells; host or cells: HEK293
# Sequence (P35348 whole entry): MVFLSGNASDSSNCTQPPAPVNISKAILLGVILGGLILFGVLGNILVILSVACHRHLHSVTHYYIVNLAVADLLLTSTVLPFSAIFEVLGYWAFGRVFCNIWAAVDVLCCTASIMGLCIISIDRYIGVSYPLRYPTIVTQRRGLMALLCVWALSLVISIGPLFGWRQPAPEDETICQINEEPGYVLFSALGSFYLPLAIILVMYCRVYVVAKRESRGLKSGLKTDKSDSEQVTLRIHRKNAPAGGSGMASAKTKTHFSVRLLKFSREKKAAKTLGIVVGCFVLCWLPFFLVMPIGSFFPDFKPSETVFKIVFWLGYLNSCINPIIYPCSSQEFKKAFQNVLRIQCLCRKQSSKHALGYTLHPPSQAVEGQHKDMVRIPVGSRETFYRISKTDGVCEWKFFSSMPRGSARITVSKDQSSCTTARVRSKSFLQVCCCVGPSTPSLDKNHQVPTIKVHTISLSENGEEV
# Experiment description: Antagonistic activity on α1A-AR: calcium fluorescence in HEK293 cells stimulated with phenylephrine
# Assay type: cell-based
# Cond: statement in text on Table 2; read-out: antagonistic activity to α1A-AR
Property name: IC50

COc1ccc2[nH]c3c(c2c1)CC1c2cc(OC)c(OCc4ccc(F)cc4)cc2CCN1C3 (stereo not shown) [Example C49] : < 10 µM
